- study system: T1, Snc2pS (soluble Snc2p, amino acids 1-93), wild type (yeast, UniProt P33328 1-93)
- T1 sequence (looked up): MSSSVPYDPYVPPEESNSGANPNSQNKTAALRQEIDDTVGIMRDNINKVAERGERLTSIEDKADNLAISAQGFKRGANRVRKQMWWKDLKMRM
- test summary: EPR line shape
Measured percent of SN2 in an unstructured conformation (not in the complex), listed per entry for reference.
quantity measured: percent of SN2 in an unstructured conformation (not in the complex)

[[record]]
binder = "Sec9c D599C, spin labeled with MTSSL (SN2) (domain or fragment, yeast, UniProt P40357 401-651, looked up, MTSSL nitroxide spin label on cysteine 599) QRGYKTFEEIQKEEEARQQQEEDEAVDEIKQEIKFTKQSSVASTRNTLKMAQDAERAGMNTLGMLGHQSEQLNNVEGNLDLMKVQNKVADEKVAELKKLNRSILAVHVSNPFNSKRRRREREEQLKNRKIEEKLMREQTSQQLSQSTQRIEGAMNANNNISEVRERYQRKNVLEKAKRYQFENDEEDDEMELEIDRNLCQIQQVSNRLKKMALTTGKELDSQQKRLNNIEESTDDLDINLHMNTNRLAGIR"
result = "~60%"

[[record]]
binder = "Sec9c H641C, spin labeled with MTSSL (SN2) (domain or fragment, yeast, UniProt P40357 401-651, looked up, MTSSL nitroxide spin label on cysteine 641) QRGYKTFEEIQKEEEARQQQEEDEAVDEIKQEIKFTKQSSVASTRNTLKMAQDAERAGMNTLGMLGHQSEQLNNVEGNLDLMKVQNKVADEKVAELKKLNRSILAVHVSNPFNSKRRRREREEQLKNRKIEEKLMREQTSQQLSQSTQRIEGAMNANNNISEVRERYQRKNVLEKAKRYQFENDEEDDEMELEIDRNLDQIQQVSNRLKKMALTTGKELDSQQKRLNNIEESTDDLDINLCMNTNRLAGIR"
result = "~60%"

[[record]]
binder = "Sec9c N606C, spin labeled with MTSSL (SN2) (domain or fragment, yeast, UniProt P40357 401-651, looked up, MTSSL nitroxide spin label on cysteine 606) QRGYKTFEEIQKEEEARQQQEEDEAVDEIKQEIKFTKQSSVASTRNTLKMAQDAERAGMNTLGMLGHQSEQLNNVEGNLDLMKVQNKVADEKVAELKKLNRSILAVHVSNPFNSKRRRREREEQLKNRKIEEKLMREQTSQQLSQSTQRIEGAMNANNNISEVRERYQRKNVLEKAKRYQFENDEEDDEMELEIDRNLDQIQQVSCRLKKMALTTGKELDSQQKRLNNIEESTDDLDINLHMNTNRLAGIR"
result = "~60%"

